Cited source for all entries: ChEMBL document CHEMBL1201862

system: IGROV-1; assay: NCI tumour cell line growth inhibition, 48 h
Calls of active or inactive are those of the source. No stated cut-off is given here; in the data, active = GI50 up to about 1.1 µM and inactive = higher.
Parameter call: string, one of t for active, f for inactive

Here's what some known entries look like.
| compound | category label |
| --- | --- |
| O=C(c1ccccc1)c1c(C(F)(F)F)[n+]([O-])c2cc(Cl)c(Cl)cc2[n+]1[O-] | t |
| CC(=O)OCC1OC(On2ccccc2=S)C(OC(C)=O)C(OC(C)=O)C1OC(C)=O (stereo not drawn) | f |
| CCCCCCCCCCCC[C@@H](O)[C@H]1CC[C@H]([C@H](O)CCCC[C@H](O)CCCCC[C@@H](O)CC2=C[C@H](C)OC2=O)O1 | t |
| CCc1cc2c(c3c1CCCC3)CC1(Cc3ccc(C(=O)OC)cc3C1)C2 (stereo not drawn) | f |
| O=S1OC(c2ccccc2)(c2ccccc2)C(c2ccccc2)(c2ccccc2)O1 | f |

Request: Short answer needed: outcome of this test for `CCOC(=O)N(C)C(=C(F)F)C(F)(F)F` ?
Result: f

Request: Short answer needed: outcome of this test for Nc1cc2c(c3ccccc13)C(CCl)CN2C(=O)c1cc2cc(NC(=O)Nc3ccc4[nH]c(C(=O)N5CC(CCl)c6c5cc(N)c5ccccc65)cc4c3)ccc2[nH]1 (stereo not drawn) ?
Result: t

Request: Short answer needed: outcome of this test for `C(#CP(c1ccccc1)c1ccccc1)P(C#CP(c1ccccc1)c1ccccc1)c1ccccc1` ?
Result: f
